biological target: recombinant soluble integrin αvβ3 (UniProt P06756 31-987; P05106 27-718); assay: SPR
Sequence (P06756 31-987, chain 1 of 2): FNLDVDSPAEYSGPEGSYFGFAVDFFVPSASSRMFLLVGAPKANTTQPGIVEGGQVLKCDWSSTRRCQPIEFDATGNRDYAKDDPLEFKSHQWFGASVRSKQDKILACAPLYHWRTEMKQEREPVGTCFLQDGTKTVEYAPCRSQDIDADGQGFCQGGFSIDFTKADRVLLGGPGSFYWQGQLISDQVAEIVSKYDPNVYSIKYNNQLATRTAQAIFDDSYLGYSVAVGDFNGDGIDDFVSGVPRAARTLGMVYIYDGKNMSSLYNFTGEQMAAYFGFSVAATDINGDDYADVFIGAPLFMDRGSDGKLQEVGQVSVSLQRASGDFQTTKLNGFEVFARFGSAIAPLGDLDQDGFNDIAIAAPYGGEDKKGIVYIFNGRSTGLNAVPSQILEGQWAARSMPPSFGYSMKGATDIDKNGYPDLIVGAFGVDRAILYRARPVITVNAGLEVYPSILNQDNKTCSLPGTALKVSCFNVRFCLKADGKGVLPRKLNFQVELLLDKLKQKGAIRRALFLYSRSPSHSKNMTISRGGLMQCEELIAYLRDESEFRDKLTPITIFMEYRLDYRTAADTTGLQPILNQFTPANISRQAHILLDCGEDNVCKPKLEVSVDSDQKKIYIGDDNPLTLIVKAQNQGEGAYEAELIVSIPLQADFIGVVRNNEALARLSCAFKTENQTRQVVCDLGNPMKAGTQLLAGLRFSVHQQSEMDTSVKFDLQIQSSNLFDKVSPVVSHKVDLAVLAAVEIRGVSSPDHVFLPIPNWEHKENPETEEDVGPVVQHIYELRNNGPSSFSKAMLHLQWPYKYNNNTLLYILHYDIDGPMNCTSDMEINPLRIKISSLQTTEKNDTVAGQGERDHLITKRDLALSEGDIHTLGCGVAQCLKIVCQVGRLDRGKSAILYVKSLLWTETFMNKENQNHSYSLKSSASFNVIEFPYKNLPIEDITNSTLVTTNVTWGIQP
Sequence (P05106 27-718, chain 2 of 2): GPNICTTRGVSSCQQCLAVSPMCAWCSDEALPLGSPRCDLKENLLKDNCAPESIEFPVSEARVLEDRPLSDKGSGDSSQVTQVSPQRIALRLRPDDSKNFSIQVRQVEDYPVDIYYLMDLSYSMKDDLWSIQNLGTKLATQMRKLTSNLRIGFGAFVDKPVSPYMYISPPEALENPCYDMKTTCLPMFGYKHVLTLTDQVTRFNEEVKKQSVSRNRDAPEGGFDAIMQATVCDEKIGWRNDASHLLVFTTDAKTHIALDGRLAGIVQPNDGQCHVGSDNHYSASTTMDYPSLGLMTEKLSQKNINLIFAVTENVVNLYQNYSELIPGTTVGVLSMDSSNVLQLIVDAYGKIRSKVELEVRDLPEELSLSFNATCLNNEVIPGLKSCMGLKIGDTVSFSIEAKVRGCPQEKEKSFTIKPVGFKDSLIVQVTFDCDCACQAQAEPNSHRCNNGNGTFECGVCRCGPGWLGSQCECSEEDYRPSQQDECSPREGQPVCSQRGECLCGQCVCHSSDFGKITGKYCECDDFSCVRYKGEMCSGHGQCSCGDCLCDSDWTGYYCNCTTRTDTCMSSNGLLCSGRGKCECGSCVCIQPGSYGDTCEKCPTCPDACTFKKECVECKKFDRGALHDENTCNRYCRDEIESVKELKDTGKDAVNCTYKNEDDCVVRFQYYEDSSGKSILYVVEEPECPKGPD
reportedMetric: pKd
Here pKd is given on a logarithmic scale as minus log10 of the concentration in mol/L.

Data request: Looking for the measured pKd of chemokine domain of fractalkine (FKN-CD), wild type, 6His-tagged (domain or fragment, human) QHHGVTKCNITCSKMTSKIPVALLIHYQQNQASCGKRAIILETRQHRLFCADPKEQWVKDAMQHLDRQAAALTRNG , can you help?
Data returned: 8.16
